# studySystem: T1, TGFβ1 (R&D Systems)
# T1 construct: also called TGFB1
# T1 sequence (P01137 279-390): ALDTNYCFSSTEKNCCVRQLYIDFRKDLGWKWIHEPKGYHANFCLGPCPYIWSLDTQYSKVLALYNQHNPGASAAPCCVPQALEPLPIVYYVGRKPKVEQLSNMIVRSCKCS
# protocolDetails: SPR full titration
valueKind: pKd
Hey, just a heads up that pKd is the negative log base 10 of the concentration in molar.

The recorded pKd for entry mouse SL501 (antibody, V domains shown, called engineered mouse antibody and also precursor human antibody from phage display; also called mouse-SL501-VH/mouse-SL501-VL; SL501 (murine)) VH: EVQLVESGGGVVQPGRSLRLSCAASGFTFSSYGMHWVRQAPGKELEWVAVISYDGSIKYYADSVKGRFTISRDNSKNTLYLQMNSLRAEDTAVYYCARTGEYSGYDTDPQYSWGQGTTVTVSS VL: EIVLTQSPSSLSASVGDRVTITCRASQGIGDDLGWYQQKPGKAPILLIYGTSTLQSGVPSRFSGSGSGTDFTLTINSLQPEDFATYYCLQDSNYPLTFGGGTK equals 11.15

Summary for this binder, Can-SL501_VH3/Can-SL501-VL1 (antibody, V domains shown, caninized IgG; constant regions not restated; also called ZTS-501) VH: EVQLVESGGDLVKPGGSLRLSCVASGFTFSSYGMHWVRQAPGKGLQWVAVISYDGSIKYYADAVKGRFTISRDNAKNTLYLQMNSLRAEDTAVYYCARTGEYSGYDTDPQYSWGQGTTVTVSS VL: EIVMTQSPASLSLSQEEKVTITCRASQGIGDDLGWYQQKPGQAPKLLIYGTSTLQSGVPSRFSGSGSGTDFSFTISSLEPEDVAVYYCLQDSNYPLTFGAGTK : pKd is 10.66

Field pKd (entry Can-SL501_VH1/CanSL501-VL-hybrid (antibody, V domains shown, constant regions not restated) VH: EVQLVESGGDLVKPGGSLRLSCVASGFTFSSYGMHWVRQAPGKGLQWVAVISYDGSIKYYTDAVKGRFTISRDNARNTVYLQMNSLRAEDTAVYYCAKTGEYSGYDTDPQYSWGQGTLVTVSS VL: EIVLTQSPSSLSASVGDRVTITCRASQGIGDDLGWYQQKPGQAPKLLIYGTSTLQSGVPSRFSGSGSGTDFSFTISSLEPEDVAVYYCLQDSNYPLTFGGGTK ) reads 8.40

Per the record, Can-SL501-VH1/Chimera-SL501-VL (antibody, V domains shown, also called heterochimeric SL501) VH: EVQLVESGGDLVKPGGSLRLSCVASGFTFSSYGMHWVRQAPGKGLQWVAVISYDGSIKYYTDAVKGRFTISRDNARNTVYLQMNSLRAEDTAVYYCAKTGEYSGYDTDPQYSWGQGTLVTVSS VL: EIVLTQSPSSLSASVGDRVTITCRASQGIGDDLGWYQQKPGKAPILLIYGTSTLQSGVPSRFSGSGSGTDFTLTINSLQPEDFATYYCLQDSNYPLTFGGGTK has pKd of 5.96

Sure, the documented pKd for Chimera-SL501-VH/Can-SL501-VL1 (antibody, V domains shown, also called heterochimeric SL501) VH: EVQLVESGGGVVQPGRSLRLSCAASGFTFSSYGMHWVRQAPGKELEWVAVISYDGSIKYYADSVKGRFTISRDNSKNTLYLQMNSLRAEDTAVYYCARTGEYSGYDTDPQYSWGQGTTVTVSS VL: EIVMTQSPASLSLSQEEKVTITCRASQGIGDDLGWYQQKPGQAPKLLIYGTSTLQSGVPSRFSGSGSGTDFSFTISSLEPEDVAVYYCLQDSNYPLTFGAGTK is 7.22
